Assay: GAPDH versus PEG-3 reporter suppression – cell-based, luminescence, counter-screen for PEG-3 promoter inhibitor project, SAR follow-up (AID 651551)
Details: HeLa PEG-Prom / GAPDH luciferase reporter, 6 or 24 h, run 1, 24 h; at 99 µM (top of the series)
Give measured inhibition % (higher = more inhibition) for each item. Keep answers brief.
Entry rule: numbers only, all in %.

Input line: I have this compound here, CCn1nc(C(=O)Nc2nc(-c3ccccn3)cs2)c2ccccc2c1=O , and I need its recorded inhibition % (higher = more inhibition).
Output line: 32.8

Input line: I have this compound here, CCCn1nc(C(=O)Nc2nc(-c3ccccn3)cs2)c2ccccc2c1=O , and I need its recorded inhibition % (higher = more inhibition).
Output line: 73.2

Input line: I have this compound here, CCn1cc(C(=O)NCc2ccco2)c(=O)c2cc(S(=O)(=O)N3CCCC3)ccc21 , and I need its recorded inhibition % (higher = more inhibition).
Output line: 56.3

Input line: I have this compound here, O=C(Nc1nc2ccccc2s1)c1nn(-c2ccccc2)c(=O)c2ccccc12 , and I need its recorded inhibition % (higher = more inhibition).
Output line: 40.7

Input line: I have this compound here, Cc1cc(NC(=O)c2ccccc2)n(-c2nc3ccccc3[nH]2)n1 , and I need its recorded inhibition % (higher = more inhibition).
Output line: 14.1

Input line: I have this compound here, COc1ccccc1Nc1nc(-c2sc(NC(=O)c3ccco3)nc2C)cs1 , and I need its recorded inhibition % (higher = more inhibition).
Output line: 68.4

Input line: I have this compound here, COc1ccc(-n2nc(C(=O)NCC(=O)Nc3cccc(OC)c3)c3ccccc3c2=O)cc1 , and I need its recorded inhibition % (higher = more inhibition).
Output line: 28.1

Input line: I have this compound here, COc1ccc(-n2nc(C(=O)NCC(=O)Nc3cc(OC)c(OC)c(OC)c3)c3ccccc3c2=O)cc1OC , and I need its recorded inhibition % (higher = more inhibition).
Output line: 69.6

Input line: I have this compound here, Cc1nc(NC(=O)c2ccccc2)sc1-c1csc(Nc2ccccc2)n1 , and I need its recorded inhibition % (higher = more inhibition).
Output line: 92

Input line: I have this compound here, Cc1cc(NC(=O)c2cccc(C)c2C)n(-c2nc3ccccc3[nH]2)n1 , and I need its recorded inhibition % (higher = more inhibition).
Output line: 27.5

Input line: I have this compound here, Cc1cc(NC(=O)c2ccccc2)n(-c2nc3ccccc3n2C)n1 , and I need its recorded inhibition % (higher = more inhibition).
Output line: 6.34

Input line: I have this compound here, Cc1nc(NC(=O)c2ccccc2)sc1-c1csc(Nc2cccc(Cl)c2C)n1 , and I need its recorded inhibition % (higher = more inhibition).
Output line: 43.1

Input line: I have this compound here, Cc1nc(NC(=O)c2ccccc2)sc1-c1csc(Nc2ccccc2Cl)n1 , and I need its recorded inhibition % (higher = more inhibition).
Output line: 22.6

Input line: I have this compound here, O=C(Nc1nccs1)c1nn(-c2ccccc2)c(=O)c2ccccc12 , and I need its recorded inhibition % (higher = more inhibition).
Output line: 38.3
